Biological target: Human 5-HT Transporter (Homo sapiens, UniProt P31645)
Construct: endogenous in cells; host or cells: Jar cells (human carcinoma), treated with staurosporine
Sequence (P31645 whole entry): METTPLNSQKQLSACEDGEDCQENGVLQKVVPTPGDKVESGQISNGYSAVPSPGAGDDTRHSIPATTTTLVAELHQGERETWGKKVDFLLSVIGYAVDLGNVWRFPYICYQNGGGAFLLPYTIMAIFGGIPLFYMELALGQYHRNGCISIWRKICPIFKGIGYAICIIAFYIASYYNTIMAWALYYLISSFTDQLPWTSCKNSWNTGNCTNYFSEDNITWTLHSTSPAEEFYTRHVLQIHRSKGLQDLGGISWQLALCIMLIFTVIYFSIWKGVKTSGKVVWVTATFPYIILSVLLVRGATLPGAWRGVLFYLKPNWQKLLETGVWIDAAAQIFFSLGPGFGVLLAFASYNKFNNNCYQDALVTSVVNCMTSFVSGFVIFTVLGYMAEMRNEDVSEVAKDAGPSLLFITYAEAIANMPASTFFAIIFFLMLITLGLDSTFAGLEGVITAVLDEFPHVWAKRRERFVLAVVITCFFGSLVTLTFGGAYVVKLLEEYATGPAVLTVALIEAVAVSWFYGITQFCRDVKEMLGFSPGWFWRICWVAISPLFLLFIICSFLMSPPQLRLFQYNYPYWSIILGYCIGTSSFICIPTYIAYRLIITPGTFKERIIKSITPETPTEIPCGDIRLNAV
Test: Inhibition of 3H-5-HT Uptake by cells Possessing the Human 5-HT Transporter (HC 5HT Transporter)
Type: cell-based
Settings: Jar cells, 3H-5-HT uptake; read-out: HC 5HT Transporter IC50
READOUT KIND: pIC50
# log scale: pIC50 equals minus log10 of the concentration in mol/L

Study these solved cases before continuing.
>  <SMILES STRUCTURE>
COc1cc2ncn(CCCCN3CCC(c4c[nH]c5ccccc45)CC3)c(=O)c2cc1OC

>  <ASSAY SYSTEM>
Human 5-HT Transporter (Homo sapiens, UniProt P31645)

>  <pIC50>
7.26

$$$$
>  <SMILES STRUCTURE>
O=c1c2cc(F)ccc2ncn1CCN1CC=C(c2c[nH]c3ccccc23)CC1

>  <ASSAY SYSTEM>
Human 5-HT Transporter (Homo sapiens, UniProt P31645)

>  <pIC50>
6.80

$$$$
>  <SMILES STRUCTURE>
Cn1cc(C2CCN(CCn3cnc4ccccc4c3=O)CC2)c2ccccc21

>  <ASSAY SYSTEM>
Human 5-HT Transporter (Homo sapiens, UniProt P31645)

>  <pIC50>
5.83

$$$$
>  <SMILES STRUCTURE>
O=c1c2ccccc2nnn1CCN1CC=C(c2c[nH]c3ccccc23)CC1

>  <ASSAY SYSTEM>
Human 5-HT Transporter (Homo sapiens, UniProt P31645)

>  <pIC50>
7.43

$$$$
>  <SMILES STRUCTURE>
O=c1c2ccccc2ncn1CCN1CC=C(c2c[nH]c3ccccc23)CC1

>  <ASSAY SYSTEM>
Human 5-HT Transporter (Homo sapiens, UniProt P31645)

>  <pIC50>
7.06

$$$$
>  <SMILES STRUCTURE>
O=c1c2cc(Cl)ccc2ncn1CCCN1CCC(c2c[nH]c3ccccc23)CC1

>  <ASSAY SYSTEM>
Human 5-HT Transporter (Homo sapiens, UniProt P31645)

>  <pIC50>
5.72

$$$$
>  <SMILES STRUCTURE>
COc1cc2ncn(CCCN3CCC(c4c[nH]c5ccccc45)CC3)c(=O)c2cc1OC

>  <ASSAY SYSTEM>
Human 5-HT Transporter (Homo sapiens, UniProt P31645)

>  <pIC50>
6.76

$$$$
>  <SMILES STRUCTURE>
COc1cc2ncn(CCN3CC=C(c4c[nH]c5ccccc45)CC3)c(=O)c2cc1OC

>  <ASSAY SYSTEM>
Human 5-HT Transporter (Homo sapiens, UniProt P31645)

>  <pIC50>
6.90

$$$$

*Q* Let me know recorded pIC50 for COc1cc2ncn(CCCCN3CC=C(c4c[nH]c5ccccc45)CC3)c(=O)c2cc1OC , thanks.
*A* 6.88

---

Biological target: 5-HT transporter (Rattus norvegicus)
Construct: from tissue; host or cells: rat frontal cortex membranes (male Sprague-Dawley rats)
Sequence (P31652 whole entry): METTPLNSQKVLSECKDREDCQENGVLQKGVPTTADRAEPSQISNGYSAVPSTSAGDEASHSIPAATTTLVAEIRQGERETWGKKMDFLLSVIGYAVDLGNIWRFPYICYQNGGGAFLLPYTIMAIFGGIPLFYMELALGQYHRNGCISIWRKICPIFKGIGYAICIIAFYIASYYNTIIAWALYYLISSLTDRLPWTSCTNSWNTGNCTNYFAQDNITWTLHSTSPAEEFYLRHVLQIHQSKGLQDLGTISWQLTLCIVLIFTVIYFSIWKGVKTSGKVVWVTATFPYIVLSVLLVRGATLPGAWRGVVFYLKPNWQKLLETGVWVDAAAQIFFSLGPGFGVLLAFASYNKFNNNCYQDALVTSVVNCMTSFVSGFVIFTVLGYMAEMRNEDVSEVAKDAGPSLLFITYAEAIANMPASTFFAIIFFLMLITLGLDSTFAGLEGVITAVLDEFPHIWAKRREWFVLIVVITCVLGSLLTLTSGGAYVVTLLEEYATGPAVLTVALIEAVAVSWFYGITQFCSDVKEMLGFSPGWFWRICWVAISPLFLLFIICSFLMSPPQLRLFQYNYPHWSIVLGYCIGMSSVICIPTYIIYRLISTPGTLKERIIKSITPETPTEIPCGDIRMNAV
Assay: Rat Brain 3H-Paroxetine Binding Assay (RB 5HT Transporter)
Details: rat frontal cortical membranes, 3H-paroxetine; read-out: RB 5HT Transporter Ki
Ki by entry:
The number alone won't do; follow it with the unit.

Worked cases, Ki given:
>  <SMILES STRUCTURE>
COc1cc2ncn(CCCN3CCC(c4c[nH]c5ccccc45)CC3)c(=O)c2cc1OC

>  <READOUT KIND>
Ki

>  <RECORDED VALUE>
0.011 µM

$$$$
>  <SMILES STRUCTURE>
Cn1cc(C2CCN(CCn3nnc4ccccc4c3=O)CC2)c2ccccc21

>  <READOUT KIND>
Ki

>  <RECORDED VALUE>
0.021 µM

$$$$
>  <SMILES STRUCTURE>
O=c1c2ccccc2nnn1CCN1CCC(c2c[nH]c3ccccc23)CC1

>  <READOUT KIND>
Ki

>  <RECORDED VALUE>
0.016 µM

$$$$
>  <SMILES STRUCTURE>
O=c1c2cc(Cl)ccc2ncn1CCCN1CCC(c2c[nH]c3ccccc23)CC1

>  <READOUT KIND>
Ki

>  <RECORDED VALUE>
0.04 µM

$$$$
>  <SMILES STRUCTURE>
O=c1c2ccccc2ncn1CCN1CCC(c2c[nH]c3ccccc23)CC1

>  <READOUT KIND>
Ki

>  <RECORDED VALUE>
0.037 µM

$$$$

*Q* Give the value of Ki reported for the following: COc1cc2ncn(CCN3CC=C(c4c[nH]c5ccc(F)cc45)CC3)c(=O)c2cc1OC
*A* 0.00457 µM

*Q* Tell me measured Ki for O=c1c2ccccc2nnn1CCN1CC=C(c2c[nH]c3ccccc23)CC1 please.
*A* 0.00352 µM

*Q* Supply Ki value. Item: O=c1c2ccccc2ncn1CCN1CC=C(c2c[nH]c3ccccc23)CC1
*A* 0.0055 µM

---

Target: human 5-HT1A receptors (Homo sapiens, UniProt P08908)
Construct: expressed in transfected cells; host or cells: CHO cells
Sequence (P08908 1-422): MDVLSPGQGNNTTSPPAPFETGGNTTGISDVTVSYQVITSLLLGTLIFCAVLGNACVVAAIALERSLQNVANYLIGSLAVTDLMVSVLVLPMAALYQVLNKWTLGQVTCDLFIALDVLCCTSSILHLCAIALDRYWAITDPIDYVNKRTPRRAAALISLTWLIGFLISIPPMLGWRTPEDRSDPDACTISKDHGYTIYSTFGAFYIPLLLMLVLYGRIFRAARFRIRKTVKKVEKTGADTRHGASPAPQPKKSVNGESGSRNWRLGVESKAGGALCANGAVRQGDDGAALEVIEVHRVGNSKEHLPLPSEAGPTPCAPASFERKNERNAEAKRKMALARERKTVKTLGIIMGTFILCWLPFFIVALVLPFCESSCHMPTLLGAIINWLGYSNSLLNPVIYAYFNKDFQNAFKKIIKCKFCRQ
Test: [3H] 8-OH-DPAT displacement from the 5-HT1A serotonin receptor (CHO cells)
Assay type: binding
Details: [3H] 8-OH-DPAT displacement, CHO cells with human 5-HT1A receptors; read-out: 5-HT1A Ki
Measured pKi of individual entries
Please express pKi as -log10 of the molar concentration.

Some molecules with known pKi results, for comparison:
>  <MOLECULE>
O=c1c2ccccc2nnn1CCN1CCC(c2c[nH]c3ccccc23)CC1 [Example 17]

>  <ASSAY SYSTEM>
human 5-HT1A receptors (Homo sapiens, UniProt P08908)

>  <READOUT KIND>
pKi

>  <RECORDED VALUE>
6.93

$$$$
>  <MOLECULE>
Cn1cc(C2=CCN(CCCn3nnc4ccccc4c3=O)CC2)c2ccccc21 [Example 21]

>  <ASSAY SYSTEM>
human 5-HT1A receptors (Homo sapiens, UniProt P08908)

>  <READOUT KIND>
pKi

>  <RECORDED VALUE>
6.20

$$$$
>  <MOLECULE>
COc1cc2ncn(CCCCN3CC=C(c4c[nH]c5ccccc45)CC3)c(=O)c2cc1OC [Example 4]

>  <ASSAY SYSTEM>
human 5-HT1A receptors (Homo sapiens, UniProt P08908)

>  <READOUT KIND>
pKi

>  <RECORDED VALUE>
6.67

$$$$

Turning to the following molecule.
*Q* Specify pKi for COc1cc2ncn(CCCCN3CCC(c4c[nH]c5ccccc45)CC3)c(=O)c2cc1OC [Example 5] and stop.
*A* 7.06

---

Listing of recorded melting point by entry.
Answer format: numeric, °C implied, no suffix.

>  <SMILES STRUCTURE>
COc1cc2ncn(CCN3CC=C(c4c[nH]c5ccc(F)cc45)CC3)c(=O)c2cc1OC

>  <UNIT STRING>
°C

>  <RECORDED VALUE>
210

$$$$
>  <SMILES STRUCTURE>
O=c1n(CCCCN2CC=C(c3c[nH]c4ccccc34)CC2)nc2ccccn12

>  <UNIT STRING>
°C

>  <RECORDED VALUE>
123.2

$$$$

*Q* Give a short answer stating reported melting point for Cn1cc(C2=CCN(CCCn3nnc4ccccc4c3=O)CC2)c2ccccc21 .
*A* 70

*Q* Note melting point for the compound shown: COc1cc2ncn(CCCN3CC=C(c4c[nH]c5ccc(F)cc45)CC3)c(=O)c2cc1OC
*A* 120

---

Target: human 5-HT1A receptors (Homo sapiens, UniProt P08908)
Construct: expressed in transfected cells; host or cells: CHO cells
Test: [3H] 8-OH-DPAT displacement from the 5-HT1A serotonin receptor (CHO cells)
Format: binding
Details: [3H] 8-OH-DPAT displacement, CHO cells with human 5-HT1A receptors; read-out: 5-HT1A Ki
READOUT KIND: Ki (nM)
Output spec: scalar in nM, unitless text.

*Q* Answer with the recorded Ki of O=c1c2ccccc2nnn1CCN1CC=C(c2c[nH]c3ccccc23)CC1 [Example 16] only.
*A* 56.7

*Q* Supply recorded Ki for COc1cc2ncn(CCN3CC=C(c4c[nH]c5ccc(F)cc45)CC3)c(=O)c2cc1OC [Example 3] here.
*A* 82.2

*Q* Return reported Ki. Input compound: O=c1c2ccccc2ncn1CCN1CC=C(c2c[nH]c3ccccc23)CC1 [Example 12]
*A* 38.2

Data origin, for the record: patent US7332506B2
